Hello, the source for this data is PubChem BioAssay, in case you need it.

protocol summary: reversal of MRP1-mediated doxorubicin resistance, pilot screen, H69AR cells, doxorubicin co-treatment (AID 601)
measurement conditions: H69AR cells + 2 uM doxorubicin, CellTiter-Glo, 72 h; at 10 µM; hits give high values
Provide the reported differential viability (reversal) of each item.
Lab book: enter the figure in %, no units written.

Summary for this compound, O=C(NC1(C(F)(F)F)NC(=O)N(Cc2ccco2)C1=O)c1cccnc1 (stereo not given) : differential viability (reversal) is 2.34

Summary for this compound, CCc1c(C)nc(N)n2c(SCC(=O)N3CCCc4ccccc43)nnc12 : differential viability (reversal) is 11.3

Summary for this compound, CCCc1cc(=O)[nH]c(/N=C(\N)Nc2ccccc2)n1 : differential viability (reversal) is -13.9

Summary for this compound, CCn1c(SCc2nc(-c3cccs3)no2)nnc1-c1c[nH]c2ccccc12 : differential viability (reversal) is 4.39

Summary for this compound, Cc1ccccc1NC(=O)C1CCC(C)(C(=O)O)C1(C)C (stereo not given) : differential viability (reversal) is 0.94

Summary for this compound, C/C(=N\O)c1ccc2c3c([nH]c2c1)CCCC3 : differential viability (reversal) is -8.65

Summary for this compound, Cc1cc(NC(=O)CSc2nccn2-c2ccc(Cl)cc2)no1 : differential viability (reversal) is 28

Summary for this compound, COc1c2ccoc2nc2c(OC)c(OCC(O)C(C)(C)O)ccc12 (stereo not given) : differential viability (reversal) is 2.17

Summary for this compound, CCOC(=O)c1[nH]c2ccc(C)cc2c1NC(=O)CN1CCCCC1 : differential viability (reversal) is 0.72

Summary for this compound, COc1ccccc1C(=O)NCC(=O)Nc1ccccc1 : differential viability (reversal) is -1.45

Summary for this compound, O=C(Nc1ccc(NC(=O)c2ccco2)nc1)c1cccnc1 : differential viability (reversal) is -1.89

Summary for this compound, O=C(CSc1nnc(-c2ccccc2Br)o1)Nc1cccc2ccccc12 : differential viability (reversal) is 24.2

Summary for this compound, Cc1nn(C)cc1C1C2=C(CC(C)(C)CC2=O)OC2=C1C(=O)CC(C)(C)C2 : differential viability (reversal) is -5.79

Summary for this compound, COc1cc(C(=O)Nc2cc(-c3ccccc3)[nH]n2)cc(OC)c1OC : differential viability (reversal) is -45.8

Summary for this compound, COc1ccccc1NC(=O)N(Cc1ccco1)Cc1cc2cccc(C)c2[nH]c1=O : differential viability (reversal) is 1.06

Summary for this compound, COCc1[nH]nc2c1C(c1cc(OC)c(O)c(OC)c1)C(C#N)=C(N)O2 (stereo not given) : differential viability (reversal) is -2

Summary for this compound, CC(C)CN(CC(C)C)C(=O)C12CCC(C)(C(=O)C1)C2(C)C (stereo not given) : differential viability (reversal) is 12.3

Summary for this compound, COc1cccc(C(=O)Nc2ccc(NC(=O)C(C)(C)C)cn2)c1 : differential viability (reversal) is 2.62

Summary for this compound, CC1CCc2cc(F)cc3c(O)c(C(=O)Nc4cnccn4)c(=O)n1c23 (stereo not given) : differential viability (reversal) is -1.42

Summary for this compound, CCn1c(=N)n(CC(=O)C23CC4CC(CC(C4)C2)C3)c2ccccc21 : differential viability (reversal) is -0.145

Summary for this compound, c1cc2c(cc1C1=Nn3c(nnc3C3CCCCC3)SC1)OCO2 : differential viability (reversal) is -67.4

Summary for this compound, O=C(Nc1ccccc1C(=O)N1CCOCC1)c1cccc(S(=O)(=O)N2CCCC2)c1 : differential viability (reversal) is -1.19

Summary for this compound, Cc1ccc(-c2[nH]nc3c2C(c2ccoc2)C(C#N)=C(N)O3)cc1C (stereo not given) : differential viability (reversal) is 0.74

Summary for this compound, Cn1c(=O)n(CCC(=O)O)c2ccccc21 : differential viability (reversal) is 13.1

Summary for this compound, COc1ccccc1NC(=O)Cn1nnc(-c2ccccc2NC(=O)c2ccco2)n1 : differential viability (reversal) is -4.18

Summary for this compound, c1n[nH]c(SCCCCSc2ncn[nH]2)n1 : differential viability (reversal) is 13.8

Summary for this compound, O=C(COC(=O)CCOc1ccccc1)Nc1ccc(Cl)cn1 : differential viability (reversal) is -17

Summary for this compound, O=C(CN(CC1CCCO1)S(=O)(=O)c1ccc(S(=O)(=O)NC2CC2)cc1)Nc1ccccc1 (stereo not given) : differential viability (reversal) is -1.47

Summary for this compound, COc1ccccc1C(=O)Nc1c2c(nn1-c1cccc(C)c1C)CS(=O)(=O)C2 : differential viability (reversal) is 22.9

Summary for this compound, COc1ccccc1NC(=O)NCc1ccc2c(c1)OCO2 : differential viability (reversal) is -1.33

Summary for this compound, CCc1c(C)c2ccc(OCC(=O)OC)cc2oc1=O : differential viability (reversal) is -2.49

Summary for this compound, COc1ccc(NC(=O)C23CCC(C)(C(=O)C2)C3(C)C)cc1 (stereo not given) : differential viability (reversal) is 2.21

Summary for this compound, Nc1nnc(Cc2ccc(Cl)cc2)s1 : differential viability (reversal) is 15.6

Summary for this compound, COCCCNCC(=O)Nc1ccc(OC(F)(F)F)cc1 : differential viability (reversal) is 13

Summary for this compound, c1ccc(CSc2nnc(-c3cccs3)n2Cc2ccco2)cc1 : differential viability (reversal) is -0.12

Summary for this compound, CC1CN(S(=O)(=O)c2ccc(Cl)c(C(F)(F)F)c2)CC(C)O1 (stereo not given) : differential viability (reversal) is 8.69

Summary for this compound, CC12COC3(C(=O)Nc4ccc(Cl)cn4)CC1CCC32C (stereo not given) : differential viability (reversal) is 9.46

Summary for this compound, NC(=O)c1sc2nc3c(c(-c4ccco4)c2c1N)CCC3 : differential viability (reversal) is -16.8

Summary for this compound, COc1cc2[nH]c3c(=O)n(CCN(C(C)C)C(C)C)cnc3c2cc1OC : differential viability (reversal) is -0.365

Summary for this compound, CC(C)(C)NC(=O)C(Cc1ccccc1)NS(=O)(=O)c1cccc2nsnc12 (stereo not given) : differential viability (reversal) is -7.5
